- Species: Rattus norvegicus
- TEST METHOD NOTES: Open TG-GATES - Regimen: Daily Repeat
- Type: toxicity, organism-based, Sprague-Dawley
- Design: regimen Daily Repeat, gender Male, age 6 weeks
- TEST SETTINGS: in vivo, po, 300 mg/kg, […], tissue Plasma, route gavage, dose level Middle, time 14 day
Could you label it true if measured DBIL is 0.02 mg/dL or higher, and false otherwise?

Study these solved cases before continuing.
[
  {
    "COMPOUND": "COC1=CC(=O)C[C@@H](C)[C@]12Oc1c(Cl)c(OC)cc(OC)c1C2=O [GRISEOFULVIN]",
    "ANSWER LABEL": "true"
  },
  {
    "COMPOUND": "COc1ccc2[nH]c([S+]([O-])Cc3ncc(C)c(OC)c3C)nc2c1 (stereo not given) [OMEPRAZOLE]",
    "ANSWER LABEL": "true"
  },
  {
    "COMPOUND": "CCOC(=O)CCC(=O)O[C@H]1[C@H](O[C@@H]2[C@@H](C)[C@H](O[C@H]3C[C@@](C)(OC)[C@@H](O)[C@H](C)O3)[C@@H](C)C(=O)O[C@H](CC)[C@@](C)(O)[C@H](O)[C@@H](C)C(=O)[C@H](C)C[C@@]2(C)O)O[C@H](C)C[C@@H]1N(C)C [ERYTHROMYCIN ETHYLSUCCINATE]",
    "ANSWER LABEL": "false"
  }
]

Please find the next compound below.
[in] Check if DBIL >= 0.02 mg/dL (inclusive). Item: NC(N)=Nc1nc(CSCCC(N)=NS(N)(=O)=O)cs1 [FAMOTIDINE]
[out] true
